Experiment: activity coefficient (dimensionless); of the first substance listed, at infinite dilution; xn = mol fraction of the nth substance listed
Conditions: 318.15 K; 101.33 kPa; Liquid; Chromatography; x1 = 0
parameter measured: activity coefficient

- compound: "C=CCCCCCCCC [1-decene] + CCCCCCCCCCCC[N+](C)(C)CCOc1ccccc1.O=S(=O)([N-]S(=O)(=O)C(F)(F)F)C(F)(F)F"
  parameter measured: "activity coefficient"
  quantitative readout: 4.02
- compound: "CC(C)O [propan-2-ol] + CCCCCCCCCCCC[N+](C)(C)CCOc1ccccc1.O=S(=O)([N-]S(=O)(=O)C(F)(F)F)C(F)(F)F"
  parameter measured: "activity coefficient"
  quantitative readout: 1.27
- compound: "Cc1ccccc1C [1,2-dimethylbenzene] + CCCCCCCCCCCC[N+](C)(C)CCOc1ccccc1.O=S(=O)([N-]S(=O)(=O)C(F)(F)F)C(F)(F)F"
  parameter measured: "activity coefficient"
  quantitative readout: 0.783
- compound: "C#CCCCCC [1-heptyne] + CCCCCCCCCCCC[N+](C)(C)CCOc1ccccc1.O=S(=O)([N-]S(=O)(=O)C(F)(F)F)C(F)(F)F"
  parameter measured: "activity coefficient"
  quantitative readout: 1.45
- compound: "Cc1ccc(C)cc1 [1,4-dimethylbenzene] + CCCCCCCCCCCC[N+](C)(C)CCOc1ccccc1.O=S(=O)([N-]S(=O)(=O)C(F)(F)F)C(F)(F)F"
  parameter measured: "activity coefficient"
  quantitative readout: 0.861
- compound: "C1CCCCC1 [cyclohexane] + CCCCCCCCCCCC[N+](C)(C)CCOc1ccccc1.O=S(=O)([N-]S(=O)(=O)C(F)(F)F)C(F)(F)F"
  parameter measured: "activity coefficient"
  quantitative readout: 2.02
- compound: "c1ccccc1 [benzene] + CCCCCCCCCCCC[N+](C)(C)CCOc1ccccc1.O=S(=O)([N-]S(=O)(=O)C(F)(F)F)C(F)(F)F"
  parameter measured: "activity coefficient"
  quantitative readout: 0.569
- compound: "CC(C)CC(C)(C)C [2,2,4-trimethylpentane] + CCCCCCCCCCCC[N+](C)(C)CCOc1ccccc1.O=S(=O)([N-]S(=O)(=O)C(F)(F)F)C(F)(F)F"
  parameter measured: "activity coefficient"
  quantitative readout: 3.66
- compound: "CCC(C)(C)C [2,2-dimethylbutane] + CCCCCCCCCCCC[N+](C)(C)CCOc1ccccc1.O=S(=O)([N-]S(=O)(=O)C(F)(F)F)C(F)(F)F"
  parameter measured: "activity coefficient"
  quantitative readout: 2.82
- compound: "CCC(C)(C)OC [2-methoxy-2-methylbutane] + CCCCCCCCCCCC[N+](C)(C)CCOc1ccccc1.O=S(=O)([N-]S(=O)(=O)C(F)(F)F)C(F)(F)F"
  parameter measured: "activity coefficient"
  quantitative readout: 1.22
- compound: "CC(C)(C)O [2-methylpropan-2-ol] + CCCCCCCCCCCC[N+](C)(C)CCOc1ccccc1.O=S(=O)([N-]S(=O)(=O)C(F)(F)F)C(F)(F)F"
  parameter measured: "activity coefficient"
  quantitative readout: 1.14
- compound: "C1COCCO1 [1,4-dioxane] + CCCCCCCCCCCC[N+](C)(C)CCOc1ccccc1.O=S(=O)([N-]S(=O)(=O)C(F)(F)F)C(F)(F)F"
  parameter measured: "activity coefficient"
  quantitative readout: 0.45

Provenance of the data: the NIST ThermoML archive (doi:10.1016/j.fluid.2018.09.024)
